Listed compounds paired with reported IC50
assay target: P70S6K (T412E mutant, Millipore) (Homo sapiens, UniProt P23443, T412E)
Construct: purchased Millipore
Sequence (P23443 whole entry T412E): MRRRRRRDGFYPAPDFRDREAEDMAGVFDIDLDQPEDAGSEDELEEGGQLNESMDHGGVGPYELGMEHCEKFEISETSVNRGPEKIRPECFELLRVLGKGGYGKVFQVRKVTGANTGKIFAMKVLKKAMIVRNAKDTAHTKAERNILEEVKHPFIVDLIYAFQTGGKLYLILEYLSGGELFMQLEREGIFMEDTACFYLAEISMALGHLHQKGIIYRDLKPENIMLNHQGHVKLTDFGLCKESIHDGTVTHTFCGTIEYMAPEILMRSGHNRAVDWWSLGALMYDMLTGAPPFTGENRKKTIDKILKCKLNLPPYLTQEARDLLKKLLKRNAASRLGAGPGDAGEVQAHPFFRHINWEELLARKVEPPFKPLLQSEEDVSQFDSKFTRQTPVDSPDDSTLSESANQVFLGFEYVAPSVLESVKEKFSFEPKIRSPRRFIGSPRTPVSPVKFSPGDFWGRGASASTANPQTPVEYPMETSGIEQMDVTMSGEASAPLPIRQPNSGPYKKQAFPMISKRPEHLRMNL
assay method text: p70S6K enzyme assay
Type: biochemical
reported conditions: class symbol; 3 nM P70S6K, 24 μM ATP; read-out: IC50 (p70S6K)

The cases that follow already have their IC50 on record.
>>> df
                                   compound                              assay_target   readout_value
0  O=C(NCCNCc1ccccc1F)c1sccc1Nc1ccnc2[nH]ccc12  P70S6K (T412E mutant, Millipore) (Homo sapiens, UniProt P23443, T412E)        < 100 nM
1       O=C(NCCCCO)c1sccc1Nc1ccnc2[nH]ccc12  P70S6K (T412E mutant, Millipore) (Homo sapiens, UniProt P23443, T412E)  100 to 1000 nM
2  NC[C@@H](NC(=O)c1sccc1Nc1ccnc2[nH]ccc12)c1ccccc1  P70S6K (T412E mutant, Millipore) (Homo sapiens, UniProt P23443, T412E)        < 100 nM
3  O=C(NCCNCc1ccsc1)c1sccc1Nc1ccnc2[nH]ccc12  P70S6K (T412E mutant, Millipore) (Homo sapiens, UniProt P23443, T412E)        < 100 nM

Given CNCC(NC(=O)c1sccc1Nc1ccnc2[nH]ccc12)c1ccccc1 (stereo not drawn) , respond with its IC50.
< 100 nM

Given NCC(NC(=O)c1sccc1Nc1ccnc2[nH]ccc12)c1ccc(C(F)(F)F)cc1 (stereo not drawn) , respond with its IC50.
< 100 nM

====

assay target: P70S6K (T412E mutant, Millipore) (Homo sapiens, UniProt P23443, T412E)
Construct: purchased Millipore
assay method text: p70S6K enzyme assay
Type: biochemical
reported conditions: class symbol; 3 nM P70S6K, 24 μM ATP; read-out: IC50 (p70S6K)
pIC50: −log10 of the molar value.
Listed molecules paired with reported pIC50

                                   molecule  property_label  readout_value
0  CC(C)(C)OC(=O)N1CCCC(NC(=O)c2ccsc2Nc2ccnc3[nH]ccc23)C1 (stereo not drawn) [Example 104]           pIC50   6.00 to 7.00

Given CCOC(=O)CCNC(=O)c1sccc1Nc1ccnc2[nH]ccc12 [Example 33] , respond with its pIC50.
6.00 to 7.00

Given O=C(NCCc1cccc(F)c1)c1sccc1Nc1ccnc2[nH]ccc12 [Example 22] , respond with its pIC50.
> 7.00
